All values here come from patent US9174991B2.

Conditions: 39% to 50% relative humidity, dark, air, 9 d; measured 48% (Form A 47%), 24° C.
Property: HPLC-purity; scope: individual compounds
Please respond with the number in % and leave the unit unwritten.

Completed entries (count: 3):
Nc1nc(O)c2c(CCc3ccc(C(=O)N[C@@H](CCC(=O)O)C(=O)O)cc3)c[nH]c2n1 [2.5 hydrate]
99.74
Nc1nc(O)c2c(CCc3ccc(C(=O)N[C@@H](CCC(=O)O)C(=O)O)cc3)c[nH]c2n1 [Heptahydrate]
99.81
Nc1nc(O)c2c(CCc3ccc(C(=O)N[C@@H](CCC(=O)O)C(=O)O)cc3)c[nH]c2n1 [Form IV]
99.76

Assign HPLC-purity to the following record: Nc1nc(O)c2c(CCc3ccc(C(=O)N[C@@H](CCC(=O)O)C(=O)O)cc3)c[nH]c2n1 [Form A]
99.62
